Taken from ChEMBL document CHEMBL3046666.

target: UniProt P26684; experiment: Antagonist activity at ETA receptor in Sprague-Dawley Rattus norvegicus (rat) thoracic aortic ring assessed as inhibition of ET1-induced thoracic aortic ring contraction at 10 uM after 30 min relative to control
recorded endpoint: inhibition

Worked examples, 6 molecules total:
Cc1c(C(=O)O)oc2cccc(OC/C=C/c3ccccc3)c12    50%
Cc1c(C(=O)O)oc2cccc(OCc3ccc4nsnc4c3)c12    82.2%
Cc1c(C(=O)O)oc2cccc(OCCN3CCCC3)c12    34.1%
Cc1c(C(=O)O)oc2cccc(OCc3ccc4nonc4c3)c12    70%
CCCCCOc1cccc2oc(C(=O)O)c(C)c12    46.8%
CCCOc1cccc2oc(C(=O)O)c(C)c12    69.7%

Q: Give UniProt P26684 inhibition for the following molecule: Cc1c(C(=O)O)oc2cccc(OC(C(=O)O)c3ccccc3)c12 (centres undefined)
Ans: 29%

Q: Answer with inhibition of `CCCCOc1cccc2oc(C(=O)O)c(C)c12` measured for UniProt P26684.
Ans: 56.7%

----------
Biological target: Endothelin-1 receptor (Rattus norvegicus)
Sequence (P26684 whole entry): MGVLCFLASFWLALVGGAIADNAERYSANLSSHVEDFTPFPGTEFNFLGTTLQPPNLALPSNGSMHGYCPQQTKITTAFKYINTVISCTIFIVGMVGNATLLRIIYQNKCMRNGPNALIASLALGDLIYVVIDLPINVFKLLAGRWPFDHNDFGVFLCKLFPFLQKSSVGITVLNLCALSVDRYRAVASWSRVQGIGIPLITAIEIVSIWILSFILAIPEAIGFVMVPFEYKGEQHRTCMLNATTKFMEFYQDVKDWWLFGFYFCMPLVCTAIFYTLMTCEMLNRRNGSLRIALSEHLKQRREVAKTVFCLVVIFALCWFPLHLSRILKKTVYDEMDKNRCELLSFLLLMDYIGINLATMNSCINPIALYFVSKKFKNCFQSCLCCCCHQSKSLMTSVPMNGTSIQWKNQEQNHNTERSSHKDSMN
Square brackets hold non-standard residues; d marks the D form. Peptide text beside a SMILES is read from it.
recorded endpoint: IC50 (nM)
// note: answer is a bare numeric in nM

Q: Could you please provide reported IC50 for CC(C)C[C@@H]1NC(=O)[C@@H](C(C)C)NC(=O)[C@@H]2CCCN2C(=O)[C@@H](CC(=O)O)NC(=O)[C@@H](Cc2c[nH]c3ccccc23)NC1=O [BQ-123] (cyclo(L[dW][dD]P[dV])) ? Thanks!
Ans: 28

----------
biological target: Endothelin-1 receptor (Homo sapiens); test: Antagonist activity at Homo sapiens (human) ETA receptor
Sequence (P25101 whole entry): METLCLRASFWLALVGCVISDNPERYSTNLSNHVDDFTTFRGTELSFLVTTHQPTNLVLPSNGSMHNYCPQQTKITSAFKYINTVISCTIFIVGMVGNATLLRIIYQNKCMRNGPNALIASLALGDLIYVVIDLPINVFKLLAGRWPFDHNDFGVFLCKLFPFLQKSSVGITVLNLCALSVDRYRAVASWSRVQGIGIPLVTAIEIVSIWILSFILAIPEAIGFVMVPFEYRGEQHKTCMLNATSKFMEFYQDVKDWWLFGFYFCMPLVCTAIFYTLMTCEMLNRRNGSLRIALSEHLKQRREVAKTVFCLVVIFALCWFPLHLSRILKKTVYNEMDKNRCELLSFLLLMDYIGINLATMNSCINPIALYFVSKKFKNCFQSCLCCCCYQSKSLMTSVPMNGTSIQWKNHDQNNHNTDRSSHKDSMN
Square brackets hold non-standard residues; d marks the D form. Peptide text beside a SMILES is read from it.
recorded endpoint: pIC50
Note: pIC50 values are expressed as the negative base-10 logarithm of concentration in M.

Q: Output pIC50 of CC(C)C[C@@H]1NC(=O)[C@@H](C(C)C)NC(=O)[C@@H]2CCCN2C(=O)[C@@H](CC(=O)O)NC(=O)[C@@H](Cc2c[nH]c3ccccc23)NC1=O [BQ-123] (cyclo(L[dW][dD]P[dV]))
Ans: 7.43

----------
Target: Endothelin receptor type B (Rattus norvegicus)
Sequence (P21451 whole entry): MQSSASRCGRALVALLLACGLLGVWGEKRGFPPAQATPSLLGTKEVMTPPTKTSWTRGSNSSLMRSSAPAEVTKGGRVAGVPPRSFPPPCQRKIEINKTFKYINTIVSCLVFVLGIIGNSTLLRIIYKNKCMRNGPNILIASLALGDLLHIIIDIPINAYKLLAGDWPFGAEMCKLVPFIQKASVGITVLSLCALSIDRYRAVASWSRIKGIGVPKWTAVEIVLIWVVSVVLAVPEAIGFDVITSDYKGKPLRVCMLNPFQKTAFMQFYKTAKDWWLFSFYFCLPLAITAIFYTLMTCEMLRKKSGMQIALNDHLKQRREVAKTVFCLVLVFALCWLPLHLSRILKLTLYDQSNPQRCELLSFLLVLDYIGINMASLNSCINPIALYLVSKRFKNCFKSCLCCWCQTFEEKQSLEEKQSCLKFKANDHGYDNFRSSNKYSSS
Experiment: Displacement of [125I]ET-1 from ETB receptor in Sprague-Dawley Rattus norvegicus (rat) myocardium after 1 hr
recorded endpoint: IC50 (nM)
Note: unit nM is implicit; provide only the numeric part.

Q: Tell me IC50 reported for `Cc1c(C(=O)O)oc2cccc(OCc3ccc4nonc4c3)c12`
Ans: 1070
